molecular target: PI3Kα (p110α/p85α) (Homo sapiens, UniProt P42336); test: HTRF assay, potency against active PI3Kα; conditions: HTRF; [ATP]=50 μM, [di-C8-PIP2]=10 μM; 30 min pre-incubation; read-out: PI3Kα Inhibition
Sequence (P42336 whole entry): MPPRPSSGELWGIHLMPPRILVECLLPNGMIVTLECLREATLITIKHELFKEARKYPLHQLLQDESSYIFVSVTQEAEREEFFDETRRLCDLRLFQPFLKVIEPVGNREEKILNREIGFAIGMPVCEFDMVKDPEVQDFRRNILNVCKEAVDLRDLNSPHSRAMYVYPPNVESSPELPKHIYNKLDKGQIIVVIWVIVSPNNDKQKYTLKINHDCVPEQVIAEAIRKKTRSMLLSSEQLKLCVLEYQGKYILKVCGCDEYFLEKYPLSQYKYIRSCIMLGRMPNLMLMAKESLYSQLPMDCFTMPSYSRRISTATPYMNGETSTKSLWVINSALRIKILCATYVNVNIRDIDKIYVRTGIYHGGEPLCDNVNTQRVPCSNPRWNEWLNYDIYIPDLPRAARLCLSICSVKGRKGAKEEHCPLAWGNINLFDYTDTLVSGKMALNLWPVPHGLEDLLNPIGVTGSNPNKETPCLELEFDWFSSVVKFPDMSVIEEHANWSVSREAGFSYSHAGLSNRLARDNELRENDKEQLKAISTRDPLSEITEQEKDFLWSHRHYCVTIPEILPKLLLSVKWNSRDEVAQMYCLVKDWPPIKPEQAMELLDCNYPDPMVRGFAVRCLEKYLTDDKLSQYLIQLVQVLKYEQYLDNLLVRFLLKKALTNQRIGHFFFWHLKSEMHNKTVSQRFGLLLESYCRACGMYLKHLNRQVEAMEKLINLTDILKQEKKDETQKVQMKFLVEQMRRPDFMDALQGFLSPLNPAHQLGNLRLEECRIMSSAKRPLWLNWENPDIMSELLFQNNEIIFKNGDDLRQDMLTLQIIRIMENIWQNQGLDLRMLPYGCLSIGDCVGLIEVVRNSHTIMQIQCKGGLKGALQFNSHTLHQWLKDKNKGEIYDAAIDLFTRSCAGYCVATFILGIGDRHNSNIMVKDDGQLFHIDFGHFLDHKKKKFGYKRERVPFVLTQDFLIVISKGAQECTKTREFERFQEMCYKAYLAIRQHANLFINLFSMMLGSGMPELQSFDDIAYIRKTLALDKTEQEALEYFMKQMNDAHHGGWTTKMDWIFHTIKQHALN
Sequence (P27986 whole entry partner): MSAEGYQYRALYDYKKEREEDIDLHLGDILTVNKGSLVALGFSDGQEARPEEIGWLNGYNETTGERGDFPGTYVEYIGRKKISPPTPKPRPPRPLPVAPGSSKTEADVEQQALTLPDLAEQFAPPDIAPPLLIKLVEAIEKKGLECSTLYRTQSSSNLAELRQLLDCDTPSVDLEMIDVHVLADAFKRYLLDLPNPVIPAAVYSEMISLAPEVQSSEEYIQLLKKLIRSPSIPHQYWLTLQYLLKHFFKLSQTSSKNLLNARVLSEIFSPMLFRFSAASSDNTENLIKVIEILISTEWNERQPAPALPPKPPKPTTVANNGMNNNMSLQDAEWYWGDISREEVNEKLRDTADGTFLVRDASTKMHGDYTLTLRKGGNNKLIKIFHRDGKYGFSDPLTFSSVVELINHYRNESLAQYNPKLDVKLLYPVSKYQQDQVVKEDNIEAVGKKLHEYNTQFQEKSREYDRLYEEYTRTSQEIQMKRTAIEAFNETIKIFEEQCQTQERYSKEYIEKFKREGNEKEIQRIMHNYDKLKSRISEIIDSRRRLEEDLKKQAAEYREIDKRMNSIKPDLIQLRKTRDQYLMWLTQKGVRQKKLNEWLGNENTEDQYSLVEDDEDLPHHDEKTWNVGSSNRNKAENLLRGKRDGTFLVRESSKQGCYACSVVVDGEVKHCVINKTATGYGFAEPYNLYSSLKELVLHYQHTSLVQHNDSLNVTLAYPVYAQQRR
pIC50: −log10 of the molar value.
QUANTITY_KIND: pIC50

{"COMPOUND": "C/C=C/C(=O)CCCC(=O)N1CCc2ccc(-c3ccnc4ccc(/C=C5\\SC(=O)NC5=O)cc34)cc2C1 [V-17]", "RESULT": "7.00 to 8.00"}
{"COMPOUND": "CC(C)(C)/C=C\\C(=O)CC[C@H](NC(=O)OC(C)(C)C)C(=O)N1CCN(Cc2cc3nc(-c4cccc5[nH]ncc45)nc(N4CCOCC4)c3s2)CC1 [II-a-52]", "RESULT": "6.00 to 7.00"}
{"COMPOUND": "C=CC(=O)N[C@H]1CCC[C@@H](C(=O)N2CCN(Cc3cc4nc(-c5cccc6[nH]ncc56)nc(N5CCOCC5)c4s3)CC2)C1 [II-a-98]", "RESULT": "6.00 to 7.00"}
{"COMPOUND": "C=CC(=O)NCC(=O)N1CCc2cc(-c3cc4nc(-c5cccc(O)c5)nc(N5CCOCC5)c4s3)ccc2C1 [II-a-121]", "RESULT": "6.00 to 7.00"}

## Input Would you mind telling me what pIC50 value was observed for CC(C)/C=C/C(=O)CCC(=O)N1CCN(Cc2cc3nc(-c4cccc5[nH]ncc45)nc(N4CCOCC4)c3s2)CC1 [II-a-54] ?
## Output 7.00 to 8.00

## Input Would you kindly repeat that for C/C=C/C(=O)CCC(=O)NCc1cccc(-c2cc3nc(-c4cccc(O)c4)nc(N4CCOCC4)c3s2)c1 [II-a-79] ?
## Output > 8.00

## Input Would you kindly repeat that for C=CC(=O)NCc1ccc(C(=O)N2CCN(Cc3cc4nc(-c5cccc6[nH]ncc56)nc(N5CCOCC5)c4s3)CC2)cc1 [II-a-21] ?
## Output < 6.00

## Input Would you kindly repeat that for C=C(C)C(=O)CCC(=O)N1CCC(C#Cc2cc3nc(-c4cccc(O)c4)nc(N4CCOCC4)c3s2)CC1 [II-a-103] ?
## Output > 8.00

## Input Would you kindly repeat that for C=CC(=O)N1CCN(C(=O)C2CCN(Cc3cc4nc(-c5cccc6[nH]ncc56)nc(N5CCOCC5)c4s3)CC2)CC1 [II-a-31] ?
## Output 6.00 to 7.00

## Input Would you kindly repeat that for CC(C)=CC(=O)c1ccc(CCNC(=O)c2cc(-c3cnc(N)nc3)nc(N3CCOCC3)c2)cc1 [XII-10] ?
## Output 6.00 to 7.00

## Input Would you kindly repeat that for C=CC(=O)Nc1ccc(C(=O)N2CC=C(c3cc4nc(-c5cccc6[nH]ncc56)nc(N5CCOCC5)c4s3)CC2)cc1 [II-a-144] ?
## Output 6.00 to 7.00

## Input Would you kindly repeat that for O=C(/C=C/c1ccccc1)CCC(=O)N1CCN(Cc2cc3nc(-c4cccc5[nH]ncc45)nc(N4CCOCC4)c3s2)CC1 [II-a-116] ?
## Output 7.00 to 8.00

## Input Would you kindly repeat that for C/C=C/C(=O)CCC(=O)N1CCN(Cc2cc3nc(-c4cccc(O)c4)nc(N4CCOCC4)c3s2)CC1 [II-a-50] ?
## Output > 8.00

## Input Would you kindly repeat that for C/C=C/C(=O)CCC(=O)N1CCN(Cc2cc3nc(-c4ccnc5[nH]ccc45)nc(N4CCOCC4)c3s2)CC1 [II-a-114] ?
## Output 6.00 to 7.00
